FYI, the data here is from patent US20020049249A1.

# test.target: PPAR-β (Homo sapiens, UniProt Q03181)
# Construct: expressed in transfected cells; host or cells: HeLa cells
# Sequence (Q03181 whole entry, species assumed): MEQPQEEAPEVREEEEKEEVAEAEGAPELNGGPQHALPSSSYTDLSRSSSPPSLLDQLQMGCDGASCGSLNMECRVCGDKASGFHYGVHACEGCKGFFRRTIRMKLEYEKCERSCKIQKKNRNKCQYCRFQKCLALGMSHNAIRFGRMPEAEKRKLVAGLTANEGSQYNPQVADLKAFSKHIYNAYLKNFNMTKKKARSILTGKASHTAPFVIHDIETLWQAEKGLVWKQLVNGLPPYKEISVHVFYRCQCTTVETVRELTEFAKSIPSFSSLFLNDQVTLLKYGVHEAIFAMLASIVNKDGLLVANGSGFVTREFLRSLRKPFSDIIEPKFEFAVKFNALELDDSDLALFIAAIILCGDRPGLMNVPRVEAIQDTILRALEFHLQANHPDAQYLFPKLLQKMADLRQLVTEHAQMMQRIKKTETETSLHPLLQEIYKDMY
# test.details: PPAR-β transactivation test (luciferase reporter, cotransfected HeLa cells)
# Format: cell-based
# Design: concentration or dose not given beside the values
# measurement.setup: HeLa cells cotransfected with receptor vector and PPRE-luciferase reporter, 24 hours; relative to Reference 2
Decide by % of activation, β: equal to or exceeding 200% means Satisfied, less means Not satisfied.

compound: CC1(C)CCC(C)(C)c2cc(Oc3ccc4cc(C(=O)O)ccc4c3)ccc21 [Compound 1]
label: Not satisfied

Quick check: does CC1=NC(=Cc2ccc(Oc3ccc4c(c3)C(C)(C)CCC4(C)C)cc2)C(=O)O1 [Comparative Example 1, reference compound] have % of activation, β greater than or equal to 200%?
Not satisfied

Next up: CC(=O)NC(=Cc1ccc(Oc2ccc3c(c2)C(C)(C)CCC3(C)C)cc1)C(=O)O [Comparative Example 2, reference compound]
Not satisfied

Next up: CC1(C)CCC(C)(C)c2cc(Nc3ccc4cc(C(=O)O)ccc4c3)ccc21 [Compound 5]
Satisfied

Next up: CC(=CC(=O)O)c1ccc(Oc2ccc3c(c2)C(C)(C)CCC3(C)C)cc1 [Compound 4]
Not satisfied

Next up: CC1(C)CCC(C)(C)c2cc(Sc3ccc4cc(C(=O)O)ccc4c3)ccc21 [Compound 3]
Not satisfied
